From: ChEMBL document CHEMBL4000148

Entries and their log10 of MIC values follow.
# Tested on: Mycobacterium tuberculosis
# PROTOCOL_DESCRIPTION: Antitubercular activity against Mycobacterium tuberculosis H37Rv ATCC 27294 after 28 days by agar dilution method
# Type: functional
# EXPERIMENTAL_CONDITIONS: H37Rv ATCC 27294, 672 h
Hey, these are logged values: log10 of MIC, µg/mL being the unit before logging.

# query: log10 of MIC of entry "CSc1ccc([C@@H]2[C@H]3CSCN3[C@]3(C(=O)Nc4ccc(Br)cc43)[C@@]23C(=O)Oc2ccccc23)cc1" 0.80

# query: log10 of MIC of entry "CSc1ccc([C@@H]2[C@H]3CSCN3[C@]3(C(=O)Nc4ccc([N+](=O)[O-])cc43)[C@@]23C(=O)Oc2ccccc23)cc1" 1.10

# query: log10 of MIC of entry "O=C1Oc2ccccc2[C@@]12[C@H](c1ccc(Br)cc1)[C@H]1CSCN1[C@]21C(=O)Nc2ccccc21" 0.49

# query: log10 of MIC of entry "O=C1Oc2ccccc2[C@@]12[C@H](c1ccc(Cl)cc1)[C@H]1CSCN1[C@]21C(=O)Nc2ccc(Br)cc21" 0.49

# query: log10 of MIC of entry "CC[C@@H](CO)NCCN[C@@H](CC)CO" 0.19

# query: log10 of MIC of entry NC(=O)c1cnccn1 [PYRAZINAMIDE] 0.80

# query: log10 of MIC of entry "COc1ccc([C@@H]2[C@H]3CSCN3[C@]3(C(=O)Nc4ccc(Br)cc43)[C@@]23C(=O)Oc2ccccc23)cc1" 1.70
